Entries and their TGI
tested on: NCI/ADR-RES ovarian; experiment: NCI tumour cell line growth inhibition, 48 h
assay.endpoint: TGI

| compound | assay.endpoint | result |
| --- | --- | --- |
| O=S(=O)(O)C(c1ccccc1)C(O)c1ccccc1 (stereo not given) | TGI | > 100 µM |
| Cc1cnc2[nH]c(-c3cccc4ccccc34)cc(=O)c2c1 | TGI | > 100 µM |
| CC(C)(C)n1c(=O)n2c(-c3ccccc3)c(-c3ccccc3)n2c1=O | TGI | > 100 µM |
| CCOC(=O)c1c(Cl)c2c(n1Cc1ccccc1)-c1oncc1CCC2 | TGI | > 100 µM |
| O=C(O)CSc1cc(NS(=O)(=O)c2ccc(Br)cc2)c2ccccc2c1O | TGI | 13.8 µM |
| N/C(CCSCCSCC/C(N)=N\O)=N\O | TGI | > 100 µM |
| c1ccc(C(NC2=NCCO2)C2CC2)cc1 (stereo not given) | TGI | > 100 µM |
| OC[C@H]1C[C@](O)(c2ccc(F)cc2)[C@@H](c2ccc(F)cc2)O1 | TGI | > 100 µM |
| O=S(=O)(Nc1ccccc1)c1ccc(C2CC3(Cl)C(Cl)=C(Cl)C2(Cl)C3(Cl)Cl)cc1 (stereo not given) | TGI | 7.98 µM |
| c1cc(OCCCCCOc2cccc(-c3nc4ccccc4[nH]3)c2)cc(-c2nc3ccccc3[nH]2)c1 | TGI | 7.91 µM |

* * *

system: HOP-92 NSCLC; experiment: NCI tumour cell line growth inhibition, 48 h; in the data active means GI50 below about 0.43 µM; inactive means the rest
Classes used: 1 (active), -1 (inactive)

| compound | label.class |
| --- | --- |
| COc1ccc(-c2c(Nc3ccccn3)nc3c(C4=CCCCC4)c(-c4ccccc4)[nH]n3c2=O)cc1 | -1 |
| O=c1c(Oc2ccc(F)cc2F)cc2cnc(NC3CCOCC3)nc2n1C1CC1 | 1 |
| COc1cc2c(Oc3ccc(-c4cnc(Nc5ccc(F)cc5)n(C)c4=O)cc3F)ccnc2cc1OCCCN1CCOCC1 | 1 |
| CC(C)c1ccc2c(c1)CCC1C2CCCC1(C)NCc1ccccc1 (stereo not given) | -1 |
| CN(C)CCCC1(c2ccc(F)cc2)OCc2cc(-c3csc4ccccc34)ccc21 (stereo not given) | -1 |

* * *

As an illustration, consider measured GI50 for molecules on MDA-MB-435.
assay.endpoint: GI50

| molecule | test.system | assay.endpoint | result |
| --- | --- | --- | --- |
| OCc1ccc(N2CCc3ccc(F)cc3C2)cc1Cl | MDA-MB-435 | GI50 | 8690 nM |
| O=C(NO)c1ccc(CNc2cccc3nc(C4CC4)n(-c4ccccc4)c(=O)c23)cc1 | MDA-MB-435 | GI50 | 1860 nM |
| CCOC(=O)c1c(Cl)c2c(n1Cc1ccccc1)-c1oncc1CCC2 | MDA-MB-435 | GI50 | 1400 nM |
| CN(C)CCCC1(c2ccc(F)cc2)OCc2cc(-c3csc4ccccc34)ccc21 (stereo not given) | MDA-MB-435 | GI50 | 1730 nM |
| CCOC(=O)C#Cc1c(C(=O)OCC)nnn1[C@@H]1O[C@H](COC)[C@@H](OC)[C@H]1OC | MDA-MB-435 | GI50 | 12100 nM |

* * *

system: COLO 205 colon; assay: NCI tumour cell line growth inhibition, 48 h
assay.endpoint: TGI (µM)

| compound | operator.symbol | result.number |
| --- | --- | --- |
| O=C1c2ccccc2C2(O)N(c3ccccc3)C(=S)N(c3ccccc3)C12O (centres undefined) | > | 100 |
| CC1(C)CC2=NO[Se]3=C2C(=NO3)C1 | = | 3.73 |
| O=S(=O)(Nc1ccccc1)c1ccc(C2CC3(Cl)C(Cl)=C(Cl)C2(Cl)C3(Cl)Cl)cc1 (centres undefined) | = | 3.48 |
| CCOC(=O)c1cn(-c2ccc([N+](=O)[O-])cc2)c(=S)n2c1nc1ccccc12 | = | 48.5 |
